Tested on: A498
protocol-text: NCI tumour cell line growth inhibition, 48 h
Activity calls are given as the source filed them. Rule as the data show it: active = GI50 up to about 1.1 µM and inactive = higher.

# compound, GI50
data = [
    ("O=C(N1CCOCC1)C1(c2ccccc2)CCNCC1", "> 100 µM (inactive)"),
    ("N#CCc1n[nH]c2nc(SCc3ccccc3)nc(N3CCCCC3)c12", "30.5 µM (inactive)"),
    ("CCC(C)C(Nc1c2ccccc2nc2c(C(=O)NCCN(C)C)cccc12)C(=O)O (stereo unspecified)", "16.9 µM (inactive)"),
    ("COC(=O)/C=C1/CCC(C(=O)OC)N1 (stereo unspecified)", "> 100 µM (inactive)"),
    ("CC1=C(C(=O)NCCCN(CCO)CCO)CC(C(=O)NCCCN(CCO)CCO)=C(C)N1", "27.4 µM (inactive)"),
    ("COc1ccc(/C=C2\\CCCCC2=O)cc1", "> 100 µM (inactive)"),
    ("COc1ccc(N2C(=O)C3c4[nH]c5ccccc5c4C4C(C)CCCC4C3C2=O)cc1 (stereo unspecified)", "45.5 µM (inactive)"),
    ("CN(C)CCNC(=O)c1cccc2ccc(-c3ccc(F)cc3)nc12", "7.1 µM (inactive)"),
    ("Nc1n[c-](N)[n+](=O)c(N)c1NCO", "> 100 µM (inactive)"),
    ("O=C1CC(NC(=O)C(F)(F)F)c2c(Br)sc(N3CCNCC3)c21 (stereo unspecified)", "> 100 µM (inactive)"),
    ("O=S(=O)(O)c1ccc(/N=N/c2ccccc2)cc1", "> 100 µM (inactive)"),
]

---

Test system: UO-31
protocol-text: NCI tumour cell line growth inhibition, 48 h
Active and inactive are the calls of the source. No stated cut-off is given here; in the data, active = GI50 up to about 1.1 µM and inactive = higher. Non-standard residues stand in square brackets, D forms with d. Residues, ends and D or L forms follow the SMILES beside them. Ava = NCCCCC(=O)O; Mpa = O=C(O)CCS
reported-endpoint: GI50

# compound, observed-measurement
measured = [
    ("CN(C)CCCn1c(-c2cc(C(C)(C)C)c(O)c(C(C)(C)C)c2)cs/c1=N\\c1ccccc1", "1.97 µM (inactive)"),
    ("N#Cc1c(=O)c2cccnc2n2c1[nH]c1ccccc12", "48.6 µM (inactive)"),
    ("COC(=O)C(Cc1c[nH]c2ccccc12)NP(=O)(O)OCC1OC(n2ccc(N)nc2=O)C(O)C1O (stereo not drawn)", "> 100 µM (inactive)"),
    ("COc1cccc(-n2c(N)c(-c3nc4cc(C(F)(F)F)ccc4s3)c3ccc([N+](=O)[O-])cc3c2=O)c1", "> 100 µM (inactive)"),
    ("CC(=O)OC(OC(C)=O)n1cc(C=O)c2ccccc21", "63.5 µM (inactive)"),
    ("COc1ccc2c(c1)c1ccc3c(c1n2C)C(=O)C=CC3=O", "11.4 µM (inactive)"),
    ("CC(NC(=O)CCS)C(=O)NC(C)C(=O)NC(Cc1c[nH]c2ccccc12)C(=O)NC(Cc1c[nH]cn1)C(=O)NC(CO)C(=O)NC(Cc1c[nH]c2ccccc12)C(=O)NCCCCC(=O)NC(C)C(=O)NC(CCC(N)=O)C(=O)NC(CCCCN)C(=O)NC(C)C(=O)NC(CCCNC(=N)N)C(=O)NC(CCCCN)C(N)=O (stereo not drawn) ([Mpa]AAWHSW[Ava]AQKARK-NH2; configuration not given here)", "> 100 µM (inactive)"),
    ("O=S(=O)(O)c1ccc(/N=N/c2ccccc2)cc1", "> 100 µM (inactive)"),
    ("O=c1ccc2ccc(O)c3c4c(O)ccc5ccc(=O)c(c1c23)c54", "1.65 µM (inactive)"),
    ("O=C(NCCN1CCCCC1)c1cccc(I)c1", "> 100 µM (inactive)"),
    ("CN(CCCN(C)CCc1ccc(Cl)c(Cl)c1)CCCN1CCCC1", "1.23 µM (inactive)"),
    ("O=C(CSC(=S)N1CCOCC1)Nc1nc2c(s1)CCCC2", "41.4 µM (inactive)"),
    ("C[Si](C)(C)/C=C/CN1C(=O)CCC1=O", "> 100 µM (inactive)"),
    ("O=C(c1ccc(Cl)cc1Cl)N(C(=O)N1CCCCC1)c1ccccc1", "> 100 µM (inactive)"),
    ("NC(=O)[C@H](Cc1ccc(O)cc1)NC1=C(Cl)C(=O)c2c(O)ccc(O)c2C1=O", "4 µM (inactive)"),
    ("CC1CCCC(C(=O)CC2CC(=O)NC(=O)C2)C1=O (stereo not drawn)", "> 100 µM (inactive)"),
    ("COc1ccccc1NC(=O)C(CC(C(=O)Nc1ccccc1OC)/C(C)=N/NC(=O)c1ccccc1O)/C(C)=N/NC(=O)c1ccccc1O (stereo not drawn)", "40.4 µM (inactive)"),
    ("C[C@H](c1ccccc1)n1c(N)c(-c2nc3ccccc3s2)c2ccc([N+](=O)[O-])cc2c1=O", "3.83 µM (inactive)"),
]
